The reported measurements were obtained from paper PMC3633906.

- system: RGS4(Δ7) mutant (Rattus norvegicus, UniProt P49799, C132A/C148A/C183A/C197A/C204A/C71A/C95A)
- Sequence (P49799 51-205 C71A/C95A/C132A/C148A/C183A/C197A/C204A limits assumed): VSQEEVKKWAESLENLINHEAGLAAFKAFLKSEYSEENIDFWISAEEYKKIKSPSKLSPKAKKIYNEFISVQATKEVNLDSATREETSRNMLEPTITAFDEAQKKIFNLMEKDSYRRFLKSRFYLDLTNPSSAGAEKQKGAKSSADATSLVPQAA
- assay-notes: Malachite green steady-state GAP assay, cysteine-null RGS4(Δ7) counter screen
- Assay type: biochemical
# pIC50 values compiled below
Remember, pIC50 is on a log scale: it is -log10 of the molar concentration.

* CC1=C(O)C(=O)C=C2C1=CC=C1[C@@]2(C)CC[C@@]2(C)[C@@H]3C[C@](C)(C(=O)O)CC[C@]3(C)CC[C@]12C | 4.06

Continue with the next compound.
Suppose we examine the compound CC(C)=CCC[C@]1(C)C=Cc2c(O)c3c(c(CC=C(C)C)c2O1)O[C@]12C(=C[C@@H]4C[C@H]1C(C)(C)O[C@@]2(C/C=C(/C)C(=O)O)C4=O)C3=O ; what pIC50 value has been reported?
4.29
